Entries and their measured pIC50 follow.
- Target or test system: HGFA (Homo sapiens, UniProt Q04756)
- Construct: purchased R&D Systems 1514-SE-010
- Sequence (Q04756 408-655 limits assumed): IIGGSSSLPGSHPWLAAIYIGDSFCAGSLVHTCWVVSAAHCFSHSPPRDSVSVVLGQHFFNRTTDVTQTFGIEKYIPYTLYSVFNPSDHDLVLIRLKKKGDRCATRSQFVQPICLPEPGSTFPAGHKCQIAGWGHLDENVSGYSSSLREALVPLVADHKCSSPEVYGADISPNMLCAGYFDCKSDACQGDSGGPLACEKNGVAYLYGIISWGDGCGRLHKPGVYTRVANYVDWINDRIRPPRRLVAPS
- Sequence (Q04756 373-407 partner limits assumed): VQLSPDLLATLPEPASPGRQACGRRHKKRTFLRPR
- Experimental details: Fluorogenic kinetic enzyme inhibitor assay, HGFA
- Assay type: biochemical
- Settings: read-out: HGFA IC50
Numbered stars: 1 amine (or outer) side, 2 acyl side, 3 side chain; on linkers, the order of the positions; unused ones are H or OH. Square brackets hold non-standard residues; d marks the D form. Peptide text beside a SMILES is read from it. X1 = N=C(N)NCCC[C@H](N[*:1])C(=O)c1nc2ccc(C(=O)[*:2])cc2s1; Phe(4-NO2) = N[C@@H](Cc1ccc([N+](=O)[O-])cc1)C(=O)O
Scale explanation: pIC50 corresponds to minus log10 of a concentration expressed in moles per litre.

Reference set (5 entries):
Molecule	pIC50
CC(=O)N[C@@H](CCCCN)C(=O)N[C@@H](CCC(N)=O)C(=O)N[C@@H](Cc1ccccc1)C(=O)N[C@@H](CCCNC(=N)N)C(=O)c1nccs1 [ZFH6101]	6.94
CC(=O)N[C@H](Cc1c[nH]c2ccccc12)C(=O)N[C@@H](Cc1ccccc1)C(=O)N[C@@H](CCCNC(=N)N)C(=O)c1nc2ccc(C(=O)O)cc2s1 [PK-1-93]	7.02
CC(=O)N[C@@H](Cc1cncn1COCc1ccccc1)C(=O)N[C@@H](CCCCNC(=N)N)C(=O)N[C@@H](CCC(C)C)C(=O)N[C@@H](CCCNC(=N)N)C(=O)c1nc2ccccc2s1 [JH1143-2]	7.36
CC(=O)N[C@H]1Cc2ccc(cc2)Oc2ccc(cc2)C[C@@H](C(=O)N[C@H](CCCNC(=N)N)C(=O)c2nc3ccccc3s2)NC(=O)[C@H](CC(C)C)NC1=O [VD5076A]	5.54
CC(=O)N[C@@H](CO)C(=O)N[C@@H](Cc1ccc([N+](=O)[O-])cc1)C(=O)N[C@@H](CC(C)C)C(=O)N[C@@H](CCCNC(=N)N)C(=O)c1nc2ccc(C(=O)N[C@H](C(N)=O)C(C)C)cc2s1 [MM1180] (Ac-S[Phe(4-NO2)]L[X1]V-NH2)	6.64

Lookup result for CC(=O)N[C@H]1Cc2ccc(cc2)OCCCC[C@@H](C(=O)N[C@@H](CCCNC(=N)N)C(=O)c2nc3ccccc3s2)NC(=O)[C@@H](Cc2c[nH]c3ccccc23)NC1=O [8b] ; measured pIC50: 8.48

// pIC50 lookup, molecule = CC(=O)N[C@@H](CO)C(=O)N[C@@H](CCCCN)C(=O)N[C@@H](CC(C)C)C(=O)N[C@@H](CCCNC(=N)N)C(=O)c1nc2ccc(C(=O)N[C@H](C(N)=O)C(C)C)cc2s1 [ZFH7116] (Ac-SKL[X1]V-NH2) , result: 7.64

Per the record, CC(=O)N[C@H]1Cc2cccc(c2)Oc2ccc(cc2)C[C@@H](C(=O)N[C@H](CCCNC(=N)N)C(=O)c2nc3ccccc3s2)NC(=O)[C@H](CC(C)C)NC1=O [VD5123A] has pIC50 of 4.76

Reported pIC50 of CC(=O)N[C@H]1CC(=O)NCCCC[C@@H](C(=O)N[C@@H](CCCNC(=N)N)C(=O)c2nc3ccccc3s2)NC(=O)[C@H](CC(C)C)NC1=O [VD2173, Ac-Cyclo(DLK)—R-ketobenzothiazole] : 5.07

molecule CC(=O)N[C@@H](CO)C(=O)NCc1cccc(CC(=O)N[C@@H](CC(C)C)C(=O)N[C@@H](CCCNC(=N)N)C(=O)c2nc3ccccc3s2)c1 [MM1132-2] , pIC50 observed: 6.68
